- test target: murine ATGL (Mus musculus)
- Construct: expressed in transfected cells; host or cells: COS-7 (ATCC CRL-1651), transient transfection with Metafectene; crude lysate after 1000 x g spin
- Sequence (Q8BJ56 whole entry): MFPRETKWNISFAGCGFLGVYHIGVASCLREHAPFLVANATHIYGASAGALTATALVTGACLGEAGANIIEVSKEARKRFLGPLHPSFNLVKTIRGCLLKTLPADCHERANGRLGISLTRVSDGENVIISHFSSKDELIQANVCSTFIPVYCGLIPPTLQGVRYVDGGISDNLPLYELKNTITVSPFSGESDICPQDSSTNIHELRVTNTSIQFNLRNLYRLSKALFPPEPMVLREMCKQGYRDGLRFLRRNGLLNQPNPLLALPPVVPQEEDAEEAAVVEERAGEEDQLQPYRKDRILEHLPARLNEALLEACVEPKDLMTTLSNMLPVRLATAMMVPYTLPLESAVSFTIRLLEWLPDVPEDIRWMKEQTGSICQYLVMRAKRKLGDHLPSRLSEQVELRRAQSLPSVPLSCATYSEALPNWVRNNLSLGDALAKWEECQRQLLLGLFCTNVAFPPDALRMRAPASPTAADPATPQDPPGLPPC
- experiment: Triglyceride hydrolase activity assay with COS7-cell lysate overexpressing recombinant murine ATGL, radiolabelled triolein substrate
- Type: biochemical
- experimental setup: 1 h; ATGL-inhibition efficiency at 200 μM inhibitor; read-out: I200 (%)
property name: inhibition at 200 µM (%)
Reply with just the number (in %).

Example results:
compound smiles: CC(=O)Nc1ccc(/C=N/N2CCN(c3ccccc3)CC2)cc1
inhibition at 200 µM [%]: 14
//
compound smiles: N#Cc1ccc(/C=N/N2CCN(c3ccccc3)CC2)cc1
inhibition at 200 µM [%]: 76
//
compound smiles: CN(C)c1ccc(/C=N/N2CCN(c3ccccc3)CC2)cc1
inhibition at 200 µM [%]: 5
//
compound smiles: O=C(Oc1ccc(F)c(F)c1)N1CCN(c2ccccc2)CC1
inhibition at 200 µM [%]: 57

Consider the additional compound presented here.
Please give the measured inhibition at 200 µM for this compound: `Fc1ccc(/C=N/N2CCN(c3ccccc3)CC2)cc1F`
67

* * *

Readings of melting point for the listed compounds

Some compounds with known melting point results, for comparison:
compound smiles: Oc1ccc(/C=N/N2CCN(c3ccc(F)cc3)CC2)c(O)c1
result: 176 to 178 °C
--
compound smiles: C(=N\N1CCN(c2ccccc2)CC1)/c1ccncc1
result: 156 to 158 °C
--
compound smiles: Cc1ccc(/C=N/N2CCN(c3ccccc3)CC2)cc1
result: 184 to 186 °C
--
compound smiles: C(=N\N1CCN(c2ccccc2)CC1)/C1CCCCC1
result: 69 to 71 °C
--
compound smiles: Clc1ccc(/C=N/N2CCN(c3ccccc3)CC2)c(Cl)c1
result: 113 to 115 °C
--
compound smiles: Oc1ccc(/C=N/N2CCN(CCc3ccccc3)CC2)c(O)c1
result: 211 to 214 °C

Form field: reported melting point of `C(=N\N1CCN(c2ccccc2)CC1)/c1ccc2c(c1)OCCO2`
186 to 187 °C

Record: `Oc1ccc(/C=N/N2CCC(c3ccccc3)CC2)c(O)c1`
139 to 142 °C

One more compound: `CCC/C=C/C=N/N1CCN(c2ccccc2)CC1`
48 °C

Now the same for `Brc1ccccc1/C=N/N1CCN(c2ccccc2)CC1`
88 to 90 °C

What do you have for `C(=N\N1CCN(c2ccccc2)CC1)/c1ccc2ccccc2c1` ?
195 to 198 °C (dec.)

One more compound: `C(=N\N1CCN(c2ccccc2)CC1)/c1cccc2ccccc12`
118 °C

// next record `Oc1ccc(/C=N/N2CCN(c3ccccc3)CC2)cc1`
192 °C (dec.)

Now consider `COc1ccc(/C=N/N2CCN(c3ccccc3)CC2)cc1OC` and answer again.
153 to 154 °C

* * *

- test target: murine ATGL (Mus musculus)
- Construct: crude lysate after 1000 x g spin
- experiment: Triglyceride hydrolase activity assay with COS7-cell lysate overexpressing recombinant murine ATGL, radiolabelled triolein substrate;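 also: radioactivity from the triolein substrate quantified by liquid scintillation counting after phase separation, reflecting triglyceride hydrolase activity of murine ATGL in lysates of transfected COS-7 cells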
- experimental setup: COS7-cell lysate overexpressing murine ATGL
property name: IC50 (µM)
Field format: number, assumed µM, no unit text.

Sample answers from the record:
compound: Fc1ccc(/C=N/N2CCN(c3ccccc3)CC2)cc1F [Compound 1m]
test target: murine ATGL (Mus musculus)
IC50 [µM]: 75
--
compound: N#Cc1ccc(/C=N/N2CCN(c3ccccc3)CC2)cc1 [Compound 1s]
test target: murine ATGL (Mus musculus)
IC50 [µM]: 50
--
compound: Oc1ccc(/C=N/N2CCN(c3ccccc3)CC2)cc1O [Compound 1a]
test target: murine ATGL (Mus musculus)
IC50 [µM]: 110
--
compound: Oc1ccc(/C=N/N2CCC(c3ccccc3)CC2)c(O)c1 [Compound 3h]
test target: murine ATGL (Mus musculus)
IC50 [µM]: 40

What value of measured IC50 is listed for O=C(Oc1ccc(F)c(F)c1)N1CCN(c2ccccc2)CC1 [Compound 14] ?
110

Please do the same for Oc1ccc(/C=N/N2CCN(c3ccccc3)CC2)c(O)c1 [Compound 1h] as well.
10

What do we get for Oc1ccc(/C=N/N2CCN(c3ccc(F)cc3)CC2)c(O)c1 [Compound 3b] ?
50
